Each recorded value in this set is attributed to the nanobody polyreactivity screen of Harvey et al. (2022).

experiment: yeast display, Sf9 membrane polyspecificity reagent, FACS + sequencing; frameworks hold sequencing errors
endpointName: polyreactivity (PSR sort gate)

QVQLVESGGGLVQAGGSLRLSCAASGSIFAYYAMGWYRQAPGKERELVAAITWSGGITYYADSVKGRFTISRDNAKNTVYLQMNSLKPEDTAVYYCNADEWPPYEYEYWGQGTQVTVSS    low polyreactivity
QVQLVESGGGVVQAGGSLRLSCAASGSIFAGIAMGWYRQAPGKERELVADITSGDSTYYADSLKGRFTISRDNAKNTVYLQMNSLTPEDTAVYYCNNQLRVPQGAFFWFHGMDYWGQGTQVTVSS    low polyreactivity
QVQLVESGGGLVQAGGSLRLSCAASGFTFPPYAMGLYIQATGKETELVAAITVGGGRTYYADSVKARFTISRDNARNTVYLQMNWLKPVDTAVYYCDADSHASTYDYWGQGTQVTVSS    low polyreactivity
